- study.system: Human immunodeficiency virus type 1 protease (Human immunodeficiency virus 1)
- method.summary: Inhibitory activity against HIV-1 Protease from PI-resistant HIV-1 (strain Q-18C)

{"columns": ["chemical.string", "IC50"],
 "data": [
  ["CC(C)(c1cc2cnccc2o1)N1CCN(C[C@@H](O)C[C@@H](Cc2ccccc2)C(=O)N[C@H]2c3ccccc3OC[C@H]2O)[C@H](C(=O)NCC(F)(F)F)C1", "1.6 nM"],
  ["CC(C)(c1ccc(-c2ccncc2)o1)N1CCN(C[C@@H](O)C[C@@H](Cc2ccccc2)C(=O)N[C@H]2c3ccccc3OC[C@H]2O)[C@H](C(=O)NCC(F)(F)F)C1", "0.1 nM"],
  ["O=C(N[C@H]1c2ccccc2OC[C@H]1O)[C@H](Cc1ccccc1)C[C@H](O)CN1CCN(Cc2ccc(-c3ccccn3)o2)C[C@H]1C(=O)NCC(F)(F)F", "0.4 nM"],
  ["O=C(N[C@H]1c2ccccc2OC[C@H]1O)[C@H](Cc1ccccc1)C[C@H](O)CN1CCN(Cc2ccc(-c3ccncc3)o2)C[C@H]1C(=O)NCC(F)(F)F", "0.8 nM"]
]}

----------
- Test system: MT4
- method.summary: Compound was tested for their ability to inhibit spread of PI-resistant HIV-1 (strain V-60C) viral infection in MT-4 human T-lymphoidcell
- Assay type: functional
- condition.set: read-out: CIC95
Reported IC95 by item:

{"columns": ["chemical.string", "IC95"],
 "data": [
  ["CC(C)(c1cc2cnccc2o1)N1CCN(C[C@@H](O)C[C@@H](Cc2ccccc2)C(=O)N[C@H]2c3ccccc3OC[C@H]2O)[C@H](C(=O)NCC(F)(F)F)C1", "62 nM"],
  ["CC(C)(C)NC(=O)[C@@H]1CN(Cc2cccnc2)CCN1C[C@@H](O)C[C@@H](Cc1ccccc1)C(=O)N[C@H]1c2ccccc2C[C@H]1O.O", "> 1000 nM"],
  ["O=C(N[C@H]1c2ccccc2OC[C@H]1O)[C@H](Cc1ccccc1)C[C@H](O)CN1CCN(Cc2ccc(-c3ccccn3)o2)C[C@H]1C(=O)NCC(F)(F)F", "15 nM"],
  ["O=C(N[C@H]1c2ccccc2OC[C@H]1O)[C@H](Cc1ccccc1)C[C@H](O)CN1CCN(Cc2ccc(-c3ccncc3)o2)C[C@H]1C(=O)NCC(F)(F)F", "31 nM"],
  ["CC(C)(c1ccc(-c2ccncc2)o1)N1CCN(C[C@@H](O)C[C@@H](Cc2ccccc2)C(=O)N[C@H]2c3ccccc3OC[C@H]2O)[C@H](C(=O)NCC(F)(F)F)C1", "12 nM"]
]}

----------
- method.summary: Oral bioavailability in dog (dose 10 mg/kg)
- Type: ADME, organism-based, Canis lupus familiaris
- condition.set: in vivo
Reported bioavailability by item:

{"columns": ["chemical.string", "bioavailability (%)"],
 "data": [
  ["O=C(N[C@H]1c2ccccc2OC[C@H]1O)[C@H](Cc1ccccc1)C[C@H](O)CN1CCN(Cc2ccc(-c3ccccn3)o2)C[C@H]1C(=O)NCC(F)(F)F", 4],
  ["CC(C)(C)NC(=O)[C@@H]1CN(Cc2cccnc2)CCN1C[C@@H](O)C[C@@H](Cc1ccccc1)C(=O)N[C@H]1c2ccccc2C[C@H]1O.O", 72]
]}

----------
- method.summary: Cmax was determine after peroral administration at 5 mpk in dog
- Type: ADME, organism-based, Canis lupus familiaris
- Parameters: dose 5 mpk, route oral
- condition.set: in vivo, po, 5 mg/kg
measured.parameter: Cmax (µM)

{"columns": ["chemical.string", "recorded.measurement"],
 "data": [
  ["CC(C)(c1ccc(-c2ccncc2)o1)N1CCN(C[C@@H](O)C[C@@H](Cc2ccccc2)C(=O)N[C@H]2c3ccccc3OC[C@H]2O)[C@H](C(=O)NCC(F)(F)F)C1", 7.3]
]}

Numbers sourced from ChEMBL document CHEMBL1136138.
